- Measurement target: human TLR7 (wild type sequence) (Homo sapiens, UniProt Q9NYK1)
- Construct: expressed in transfected cells; host or cells: HEK293
- Sequence (Q9NYK1 27-1049): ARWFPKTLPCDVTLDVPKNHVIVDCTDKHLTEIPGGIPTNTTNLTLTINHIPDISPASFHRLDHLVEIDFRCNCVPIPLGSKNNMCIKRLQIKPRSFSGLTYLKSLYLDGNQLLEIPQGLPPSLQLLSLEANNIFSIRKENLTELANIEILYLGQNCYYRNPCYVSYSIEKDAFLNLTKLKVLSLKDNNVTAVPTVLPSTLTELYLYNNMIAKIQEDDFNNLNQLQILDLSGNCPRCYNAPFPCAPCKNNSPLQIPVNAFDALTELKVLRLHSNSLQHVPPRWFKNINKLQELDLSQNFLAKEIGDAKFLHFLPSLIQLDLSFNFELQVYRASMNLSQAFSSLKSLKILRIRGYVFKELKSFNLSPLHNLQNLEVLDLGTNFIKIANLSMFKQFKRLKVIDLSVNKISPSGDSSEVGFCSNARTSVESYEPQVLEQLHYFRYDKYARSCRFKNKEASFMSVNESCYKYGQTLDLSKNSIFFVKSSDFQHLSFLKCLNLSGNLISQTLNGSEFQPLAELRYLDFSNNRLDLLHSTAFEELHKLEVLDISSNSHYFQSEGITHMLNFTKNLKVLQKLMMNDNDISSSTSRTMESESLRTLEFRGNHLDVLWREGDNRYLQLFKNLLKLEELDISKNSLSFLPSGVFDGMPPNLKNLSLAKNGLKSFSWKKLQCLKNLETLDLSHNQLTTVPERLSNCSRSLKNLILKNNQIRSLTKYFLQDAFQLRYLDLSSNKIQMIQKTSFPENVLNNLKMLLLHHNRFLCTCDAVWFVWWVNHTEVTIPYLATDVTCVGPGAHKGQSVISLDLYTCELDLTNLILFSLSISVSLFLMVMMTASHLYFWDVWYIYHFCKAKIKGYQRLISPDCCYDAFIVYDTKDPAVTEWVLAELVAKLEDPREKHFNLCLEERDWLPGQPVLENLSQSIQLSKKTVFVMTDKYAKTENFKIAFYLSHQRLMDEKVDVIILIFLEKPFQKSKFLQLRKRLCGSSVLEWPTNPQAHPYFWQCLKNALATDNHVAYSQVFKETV
- Assay name: TLR7 cellular NFκB-luc reporter assay, wild type TLR7
- Type: cell-based
- Set-up: unit not given here
- Test conditions: lowest effective concentration, wild type TLR7
Okay, here is how we bin by TLR7-wt_LEC: group 1: < 0.2; group 2: ≥ 0.2 and < 1; group 3: ≥ 1

These recorded examples may help you get a feel for the data.
Ask: Lab note: sort "CCC[C@@H](CCO)Nc1nc(N)ncc1OCCOC" into the matching TLR7-wt_LEC band.
Reply: group 3

Ask: Sort "CCCC[C@@H](CCO)Nc1nc(N)ncc1OCc1cccnn1" into one of the categories.
Reply: group 2

Ask: GET /class?item= "CCC[C@H](C)Nc1nc(N)ncc1OCc1nccc2ccccc12"
Reply: group 1

Ask: Exercise: read the entry "CCCC[C@@H](CCO)Nc1nc(N)ncc1OCc1cn2ccccc2n1" and state which class it falls under.
Reply: group 1

---
Ask: Categorize the following entry: "CCCC[C@@H](CCO)Nc1nc(N)ncc1OCc1cccnc1"
Reply: group 2

Ask: Hi there! Could you help me figure out the category for "CCC[C@@H](CCO)Nc1nc(N)ncc1OCCOC(C)C" please?
Reply: group 3

Ask: Note: place this compound into its band. Item: "CCCC[C@@H](CO)Nc1nc(N)ncc1OCc1cn2ccccc2n1"
Reply: group 1

Ask: # bin label for "CCC[C@@H](CO)Nc1nc(N)ncc1OCc1cc(C)n(C)n1"
Reply: group 2

Ask: The entry to classify is "CCC[C@@H](CO)Nc1nc(N)ncc1OCc1cccc(C(N)=O)n1" ; which class holds it?
Reply: group 3
